meta.source: ChEMBL document CHEMBL3044577

# key: entry, value: inhibition at 10 µM
# system-under-test: Aromatase (Rattus norvegicus)
# Sequence (P22443 whole entry): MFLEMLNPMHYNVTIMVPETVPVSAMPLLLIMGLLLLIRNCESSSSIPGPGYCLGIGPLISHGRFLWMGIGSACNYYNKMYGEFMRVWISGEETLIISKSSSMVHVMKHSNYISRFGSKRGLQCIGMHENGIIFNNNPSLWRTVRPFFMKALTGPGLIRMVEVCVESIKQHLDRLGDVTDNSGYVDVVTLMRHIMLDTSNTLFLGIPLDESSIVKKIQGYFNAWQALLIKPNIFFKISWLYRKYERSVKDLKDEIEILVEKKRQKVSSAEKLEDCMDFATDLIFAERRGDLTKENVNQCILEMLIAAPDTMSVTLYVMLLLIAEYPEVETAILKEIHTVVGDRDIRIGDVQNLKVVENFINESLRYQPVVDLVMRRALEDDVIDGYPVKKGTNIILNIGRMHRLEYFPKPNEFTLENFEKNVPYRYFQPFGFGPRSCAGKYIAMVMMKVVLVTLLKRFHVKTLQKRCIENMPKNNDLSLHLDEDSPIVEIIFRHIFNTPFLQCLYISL
# assay-info: Inhibition of aromatase in Rattus norvegicus (rat) PMSG-treated denucleated ovarian fraction using testosterone as substrate at 10 uM after 15 min by radioimmuno assay
# condition-label: 0.25 h
Give a bare numeral; the unit % is implied.

Example compounds with recorded inhibition at 10 µM:
chemical-smiles: C[C@]1(COC(=O)CCCC(=O)O)CC[C@@H]2c3ccc(O)cc3CC[C@H]2[C@@H]1CC#N
unit-abbrev: %
inhibition at 10 µM: 16.6
//
chemical-smiles: C[C@]1(COC(=O)CCC(=O)O)CC[C@@H]2c3ccc(O)cc3CC[C@H]2[C@@H]1CC#N
unit-abbrev: %
inhibition at 10 µM: -10.6
//
chemical-smiles: C[C@]1(COC(=O)CCC(=O)O)CC[C@@H]2c3ccc(OCc4ccccc4)cc3CC[C@H]2[C@@H]1CC#N
unit-abbrev: %
inhibition at 10 µM: 7.02

// next item, inhibition at 10 µM requested
[ask] Please give the measured inhibition at 10 µM for this compound: C[C@]1(COC(=O)CCCC(=O)O)CC[C@@H]2c3ccc(OCc4ccccc4)cc3CC[C@H]2[C@@H]1CC#N
[reply] 17.9

----------
# Tested on: Rattus norvegicus
# assay-info: Estrogenic activity in female Rattus norvegicus Wistar (rat)assessed as change in uterine weight at 5 mg/kg, sc QD for 3 days relative to control
# condition-label: in vivo, 72 h
Catalogue of Activity readings, one per entry.
Give just the number in %; leave the unit off.

molecule: C[C@]1(COC(=O)CCCC(=O)O)CC[C@@H]2c3ccc(OCc4ccccc4)cc3CC[C@H]2[C@@H]1CC#N
Activity [%]: -3.92
//
molecule: C[C@]1(COC(=O)CCCC(=O)O)CC[C@@H]2c3ccc(O)cc3CC[C@H]2[C@@H]1CC#N
Activity [%]: -9.63

[ask] What value of measured Activity is listed for C[C@]1(CO)CC[C@@H]2c3ccc(O)cc3CC[C@H]2[C@@H]1CC#N ?
[reply] -2.06

[ask] How about CC/C(=C(\c1ccccc1)c1ccc(OCCN(C)C)cc1)c1ccccc1.O=C(O)CC(O)(CC(=O)O)C(=O)O [TAMOXIFEN CITRATE] ?
[reply] 39.78

[ask] Same question, C[C@]1(COC(=O)CCC(=O)O)CC[C@@H]2c3ccc(O)cc3CC[C@H]2[C@@H]1CC#N this time
[reply] -6.78

[ask] Then what about the molecule C[C@]1(CO)CC[C@@H]2c3ccc(OCc4ccccc4)cc3CC[C@H]2[C@@H]1CC#N ?
[reply] 0.71

[ask] And for C[C@]1(COC(=O)CCC(=O)O)CC[C@@H]2c3ccc(OCc4ccccc4)cc3CC[C@H]2[C@@H]1CC#N ?
[reply] -2.28

----------
growth inhibition (GI) listing for selected compounds.
# Tested on: HT-29
# assay-info: Growth inhibition of Homo sapiens (human) HT-29 cells at 10^-12 to 10^-6 M after 48 hr by MTT assay
# Format: functional
# Parameters: concentration or dose not given beside the values

compound: C[C@]1(COC(=O)CCC(=O)O)CC[C@@H]2c3ccc(O)cc3CC[C@H]2[C@@H]1CC#N
system-under-test: HT-29
recorded-measurement: 30%
--
compound: C[C@]1(COC(=O)CCCC(=O)O)CC[C@@H]2c3ccc(O)cc3CC[C@H]2[C@@H]1CC#N
system-under-test: HT-29
recorded-measurement: 10%
--
compound: C[C@]1(COC(=O)CCC(=O)O)CC[C@@H]2c3ccc(OCc4ccccc4)cc3CC[C@H]2[C@@H]1CC#N
system-under-test: HT-29
recorded-measurement: 40%

API: the following record is the query input.
[ask] Given C[C@]12CC[C@@H]3c4ccc(O)cc4CC[C@H]3[C@@H]1CC[C@@H]2O [ESTRADIOL] , state its recorded growth inhibition (GI).
[reply] 20%
